# testTarget: CBP (Homo sapiens, UniProt Q92793)
# Construct: host or cells: A549 CBP HiBit cells
# Sequence (Q92793 whole entry): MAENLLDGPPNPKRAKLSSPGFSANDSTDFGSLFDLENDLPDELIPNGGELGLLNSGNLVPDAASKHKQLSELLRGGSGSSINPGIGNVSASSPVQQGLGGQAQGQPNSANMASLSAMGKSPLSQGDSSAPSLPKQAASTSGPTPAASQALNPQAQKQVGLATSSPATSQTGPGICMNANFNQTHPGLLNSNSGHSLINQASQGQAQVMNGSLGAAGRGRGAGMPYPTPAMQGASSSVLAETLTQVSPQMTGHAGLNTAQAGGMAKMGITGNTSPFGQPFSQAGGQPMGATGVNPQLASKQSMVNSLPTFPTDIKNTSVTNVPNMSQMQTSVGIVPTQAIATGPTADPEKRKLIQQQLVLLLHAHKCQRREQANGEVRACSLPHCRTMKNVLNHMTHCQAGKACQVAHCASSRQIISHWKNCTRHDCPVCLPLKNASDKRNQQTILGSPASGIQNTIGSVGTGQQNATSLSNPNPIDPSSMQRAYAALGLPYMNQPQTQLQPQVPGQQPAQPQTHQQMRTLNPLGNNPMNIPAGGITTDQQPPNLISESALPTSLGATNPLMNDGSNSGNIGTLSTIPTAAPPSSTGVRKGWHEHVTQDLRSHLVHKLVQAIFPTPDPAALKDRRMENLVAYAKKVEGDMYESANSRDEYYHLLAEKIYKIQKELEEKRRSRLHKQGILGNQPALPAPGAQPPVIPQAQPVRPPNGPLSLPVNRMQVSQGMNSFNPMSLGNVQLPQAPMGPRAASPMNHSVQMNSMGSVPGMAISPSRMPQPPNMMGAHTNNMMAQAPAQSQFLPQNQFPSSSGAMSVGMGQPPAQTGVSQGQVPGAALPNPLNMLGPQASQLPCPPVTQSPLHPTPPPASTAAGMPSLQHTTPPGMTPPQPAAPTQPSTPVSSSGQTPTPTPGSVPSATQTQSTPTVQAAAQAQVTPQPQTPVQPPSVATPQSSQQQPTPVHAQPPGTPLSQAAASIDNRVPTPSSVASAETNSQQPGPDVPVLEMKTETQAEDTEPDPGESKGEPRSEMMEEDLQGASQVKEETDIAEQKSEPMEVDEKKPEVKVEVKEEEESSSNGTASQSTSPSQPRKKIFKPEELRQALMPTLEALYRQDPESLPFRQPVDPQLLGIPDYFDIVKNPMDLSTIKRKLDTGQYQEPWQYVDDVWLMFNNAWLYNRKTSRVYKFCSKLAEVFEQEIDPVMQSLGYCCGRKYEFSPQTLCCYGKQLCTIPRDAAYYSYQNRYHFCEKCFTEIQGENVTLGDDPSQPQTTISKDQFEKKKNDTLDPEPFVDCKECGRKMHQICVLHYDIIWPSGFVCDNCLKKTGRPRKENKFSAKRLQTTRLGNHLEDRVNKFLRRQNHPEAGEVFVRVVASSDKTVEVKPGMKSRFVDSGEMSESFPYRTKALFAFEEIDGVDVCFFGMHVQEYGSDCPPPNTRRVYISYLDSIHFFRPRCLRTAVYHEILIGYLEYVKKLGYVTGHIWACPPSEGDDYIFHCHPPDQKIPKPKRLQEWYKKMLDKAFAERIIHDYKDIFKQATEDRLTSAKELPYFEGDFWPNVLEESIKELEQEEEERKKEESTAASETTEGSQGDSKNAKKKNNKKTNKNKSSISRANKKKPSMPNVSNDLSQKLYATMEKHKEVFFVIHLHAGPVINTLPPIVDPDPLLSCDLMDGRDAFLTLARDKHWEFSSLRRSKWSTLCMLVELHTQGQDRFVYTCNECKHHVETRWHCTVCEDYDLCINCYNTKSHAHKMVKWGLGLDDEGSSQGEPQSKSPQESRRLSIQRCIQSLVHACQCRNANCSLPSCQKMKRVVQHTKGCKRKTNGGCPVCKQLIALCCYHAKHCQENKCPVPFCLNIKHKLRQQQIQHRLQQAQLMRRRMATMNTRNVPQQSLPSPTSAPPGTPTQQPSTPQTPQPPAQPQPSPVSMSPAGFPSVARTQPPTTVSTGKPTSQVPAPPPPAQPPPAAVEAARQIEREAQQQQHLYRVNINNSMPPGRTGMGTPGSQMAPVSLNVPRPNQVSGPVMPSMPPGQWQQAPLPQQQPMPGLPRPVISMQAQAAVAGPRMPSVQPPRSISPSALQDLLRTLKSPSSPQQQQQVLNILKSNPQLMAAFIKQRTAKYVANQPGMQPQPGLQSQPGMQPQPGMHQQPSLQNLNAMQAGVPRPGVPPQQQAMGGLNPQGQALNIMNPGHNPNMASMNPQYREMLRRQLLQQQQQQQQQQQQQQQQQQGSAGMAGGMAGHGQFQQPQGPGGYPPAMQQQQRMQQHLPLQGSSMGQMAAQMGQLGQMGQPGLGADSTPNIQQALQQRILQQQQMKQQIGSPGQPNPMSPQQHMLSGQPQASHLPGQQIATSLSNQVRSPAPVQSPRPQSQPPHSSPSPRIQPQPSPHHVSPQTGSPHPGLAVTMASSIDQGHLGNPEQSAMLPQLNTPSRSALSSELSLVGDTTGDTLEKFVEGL
# measurementDescription: CBP degradation, HiBit technology in A549 CBP HiBit cells (24 h)
# Format: cell-based
# setupConditions: 24 hrs post treatment

compound	Dmax
Cc1cc2c(N3CCCc4nc(-c5ccc(C(=O)NCC#Cc6ccc7onc(C8CCC(=O)NC8=O)c7c6)nc5)ncc43)cc(C3CCOCC3)cc2n(C)c1=O (stereo not shown)	< 20%
Cc1cc(N2CCN(C)c3nc(-c4ccc(C(=O)NCC#Cc5cc6c(C7CCC(=O)NC7=O)cccc6o5)nc4)ncc32)cc2c1n(C)c(=O)n2C (stereo not shown)	< 20%
CCc1cc(N(C)c2ccc(-c3cnc(C(=O)NCC#Cc4cccc(NC5CCC(=O)NC5=O)c4)c(C)c3)nc2)c2cc(C)c(=O)n(C)c2c1 (stereo not shown)	20 to 39%
Cc1cc2c(N3CCCc4nc(-c5ccc(C(=O)NCC#Cc6cc7c(C8CCC(=O)NC8=O)cccc7o6)nc5)ncc43)nc(N3CCC(C)(O)CC3)cc2n(C)c1=O (stereo not shown)	< 20%
CC(C)c1cc(-c2cccc3cc(-c4ccc(C(=O)NCC#Cc5ccc6c(c5)n(C)c(=O)n6C5CCC(=O)NC5=O)nc4)ncc23)cc2c1n(C)c(=O)n2C (stereo not shown)	< 20%
COc1cc(N2CCOc3cc(-c4ccc(C(=O)NCC#Cc5ccc6occ(C7CCC(=O)NC7=O)c6c5)nc4)ncc32)c2cc(C)c(=O)n(C)c2c1 (stereo not shown)	< 20%
Cc1cc2c(N3CCCc4nc(-c5ccc(C(=O)NCC#Cc6ccc7occ(C8CCC(=O)NC8=O)c7c6)nc5)ncc43)nc(N3CC4(COC4)C3)cc2n(C)c1=O (stereo not shown)	< 20%
Cc1cc2c(N3CCCc4nc(-c5ccc(C(=O)NCC#Cc6cc7c(C8CCC(=O)NC8=O)cccc7s6)nc5)ncc43)cc(C3CCOCC3)cc2n(C)c1=O (stereo not shown)	< 20%
Cc1cc(-c2ncc(N(C)c3cc(C4CCOCC4)cc4c3cc(C)c(=O)n4C)cn2)cnc1C(=O)NCC#Cc1cc2c(C3CCC(=O)NC3=O)cccc2o1 (stereo not shown)	< 20%
CN1CCN(c2ccc3c(c2)n(C)c(=O)n3C)c2cnc(-c3ccc(C(=O)NCC#Cc4ccc5occ(C6CCC(=O)NC6=O)c5c4)nc3)cc21 (stereo not shown)	< 20%
Cc1cc(-c2cc3cccc(-c4ccc5c(c4)n(C)c(=O)n5C)c3cn2)cnc1C(=O)NCC#Cc1cc2c([C@@H]3CCC(=O)NC3=O)cccc2o1	< 20%
CC(C)c1cc(-c2cccc3cc(-c4ccc(C(=O)NCC#Cc5ccc6oc(=O)n(C7CCC(=O)NC7=O)c6c5)nc4)ncc23)cc2c1n(C)c(=O)n2C (stereo not shown)	60 to 79%
Cc1cc2c(N3CCCc4nc(-c5ccc(C(=O)NCC#Cc6cc7c(C8CCC(=O)NC8=O)cccc7o6)nc5)ncc43)cc(C(C)C)nc2n(C)c1=O (stereo not shown)	< 20%
Cc1cc2c(N3CCCc4nc(-c5ccc(C(=O)NCC#Cc6ccc7occ(C8CCC(=O)NC8=O)c7c6)nc5)ncc43)nc(N3CCOCC3)nc2n(C)c1=O (stereo not shown)	< 20%
Cn1c(=O)n(C)c2cc(C3=CC(C)(C)Oc4cc(-c5ccc(C(=O)NCC#Cc6ccc7occ(C8CCC(=O)NC8=O)c7c6)nc5)ncc43)ccc21 (stereo not shown)	< 20%
CC(C)c1cc(N2CCN(C)c3cc(-c4ccc(C(=O)NCC#Cc5cccc(NC6CCC(=O)NC6=O)c5)nc4)ncc32)cc2c1n(C)c(=O)n2C (stereo not shown)	60 to 79%
Cc1cc2c(N3CCCc4nc(-c5ccc(C(=O)NCC#Cc6cc7c(C8CCC(=O)NC8=O)cccc7o6)nc5)ncc43)cc(C3COC3)nc2n(C)c1=O (stereo not shown)	< 20%
CC(C)c1cc(N2CCOc3nc(-c4ccc(C(=O)NCC#Cc5ccc6occ(C7CCC(=O)NC7=O)c6c5)nc4)ncc32)cc2c1n(C)c(=O)n2C (stereo not shown)	< 20%
Cc1cc(-c2ncc3c(n2)CCCN3c2cc(C3CCOCC3)nc3c2cc(C)c(=O)n3C)cnc1C(=O)NCC#Cc1cc2c(C3CCC(=O)NC3=O)cccc2o1 (stereo not shown)	< 20%
